Experiment: growth inhibitors of H69AR lung tumor, primary screen, human, duplicate replicates (AID 580);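 further: 100% = mean luminescence of untreated wells and 0% = no signal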
Details: H69AR lung tumor cells viability, ATP luminescence, 72 h; at 10 µM; stronger effect = lower value
Quick reference for viability among some compounds
QUANTITY_KIND: viability (%)

INSERT INTO assay_data (compound, quantity_kind, unit_annotation, quantitative_readout) VALUES
  ('CCC(=O)N1CCN=C1SCc1ccc(Cl)cc1', 'viability', '%', 95.1),
  ('O=C(Nc1ccon1)c1csc2c1CCCC2', 'viability', '%', 98.3),
  ('O=C(CCCc1cccs1)Nc1nc2c(s1)CCCC2', 'viability', '%', 84.5),
  ('CCOc1ccccc1N(C(=O)Cn1nnnc1-c1ccc(C)o1)C(CC)C(=O)NC(C)(C)C (configuration not stated)', 'viability', '%', 88.5),
  ('Cn1c(SC/C=C/c2ccccc2)nnc1-c1cnccn1', 'viability', '%', 94.3),
  ('O=C1CCC(=O)N1OCCCCOc1ccccc1', 'viability', '%', 96.2),
  ('COc1ccc(-c2nc(C#N)c(N3CCOCC3)o2)cc1OC', 'viability', '%', 84.5),
  ('CC1CCCCC1NC(=O)C1CCN(C(=O)NC2CCCCC2)CC1 (configuration not stated)', 'viability', '%', 102),
  ('CCNS(=O)(=O)c1c(C)cc(N2CCCC2=O)cc1C', 'viability', '%', 98.8),
  ('O=C(OCc1ccccc1F)c1ccc2c(c1)OCCO2', 'viability', '%', 92),
  ('CCOC(=O)CNC(=O)Nc1ccccc1C(=O)OC', 'viability', '%', 94.1),
  ('Cc1ccccc1CSCC(=O)c1c(N)n(C)c(=O)n(C)c1=O', 'viability', '%', 93.5);
